These data points were gathered from patent US20250376519A1.

# TARGET_SYSTEM: T1, human DLL3 on cells (human, UniProt Q9NYJ7 27-618)
# T1 construct: Endogenous on H1184 and SHP77; Cell line is named under assay; also called H1184; DLL3/H82
# T1 sequence: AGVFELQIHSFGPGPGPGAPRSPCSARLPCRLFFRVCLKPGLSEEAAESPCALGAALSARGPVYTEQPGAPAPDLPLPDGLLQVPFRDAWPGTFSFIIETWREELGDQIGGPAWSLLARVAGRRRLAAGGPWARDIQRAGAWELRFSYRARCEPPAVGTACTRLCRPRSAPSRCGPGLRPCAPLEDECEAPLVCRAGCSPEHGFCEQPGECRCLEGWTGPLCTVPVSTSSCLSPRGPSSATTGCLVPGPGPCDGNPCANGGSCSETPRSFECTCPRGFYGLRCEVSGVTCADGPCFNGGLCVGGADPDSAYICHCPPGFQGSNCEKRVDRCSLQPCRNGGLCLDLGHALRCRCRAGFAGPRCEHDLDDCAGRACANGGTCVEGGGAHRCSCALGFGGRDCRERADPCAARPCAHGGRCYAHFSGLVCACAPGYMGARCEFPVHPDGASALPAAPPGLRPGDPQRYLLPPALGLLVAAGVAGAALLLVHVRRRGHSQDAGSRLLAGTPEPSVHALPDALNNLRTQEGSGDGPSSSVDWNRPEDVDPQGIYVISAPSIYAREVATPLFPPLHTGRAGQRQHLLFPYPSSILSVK
# PROCEDURE_DETAILS: flow cytometry, H1184 cells
Below, each of the binders is paired with its reported Emax value.
Form rule: numeric answer, no unit written next to it.

1) hu6L2H12 (antibody, human IgG1, kappa, V domains shown) VH: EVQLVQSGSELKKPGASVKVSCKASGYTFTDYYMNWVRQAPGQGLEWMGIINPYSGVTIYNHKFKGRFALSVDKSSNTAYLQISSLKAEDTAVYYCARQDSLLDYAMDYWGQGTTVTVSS VL: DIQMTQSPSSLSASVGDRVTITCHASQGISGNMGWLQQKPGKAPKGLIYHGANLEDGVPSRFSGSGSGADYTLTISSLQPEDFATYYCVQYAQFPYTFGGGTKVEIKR	2140

// moving on: another record for Emax
Task item: Input hu98L2H1 (antibody, human IgG1, kappa, V domains shown) VH: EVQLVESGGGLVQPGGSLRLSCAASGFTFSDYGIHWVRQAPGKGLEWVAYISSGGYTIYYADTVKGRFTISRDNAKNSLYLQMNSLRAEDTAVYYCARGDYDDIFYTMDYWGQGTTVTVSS VL: DIQMTQSPSSLSASVGDRVTITCRASRDITKFLNWYQQKPGKAVKLLIYYTSRLHSGVPSRFSGSGSGTDYTLTISSLQPEDFATYYCQQGNTLPWTFGGGTKVEIKR , output reported Emax.
Reply: 2470
